# EXPERIMENT DESCRIPTION: Cytotoxicity against mouse P815 cells assessed as growth inhibition after 96 hrs
# Format: cell-based
# APPLIED CONDITIONS: read-out: ID50
One threshold, 1 µg/mL, splits the recorded GI50 at 96 h values: lower ones are fulfilled, equal or higher ones are not fulfilled.

[
  {
    "SMILES TEXT": "O=c1ccn([C@@H]2O[C@H](CO)[C@@H](O)[C@@H]2F)c(=O)[nH]1",
    "CLASS NAME": "not fulfilled"
  },
  {
    "SMILES TEXT": "Cc1cn([C@@H]2O[C@H](CO)[C@@H](O)[C@@H]2O)c(=O)[nH]c1=O",
    "CLASS NAME": "not fulfilled"
  },
  {
    "SMILES TEXT": "O=c1[nH]c(=O)n([C@@H]2O[C@H](CO)[C@@H](O)[C@@H]2F)cc1F",
    "CLASS NAME": "fulfilled"
  },
  {
    "SMILES TEXT": "O=c1[nH]c(=O)n([C@@H]2O[C@H](CO)[C@@H](O)[C@@H]2O)cc1I",
    "CLASS NAME": "not fulfilled"
  },
  {
    "SMILES TEXT": "Nc1nc(=O)n([C@@H]2O[C@H](CO)[C@@H](O)[C@@H]2F)cc1Br",
    "CLASS NAME": "not fulfilled"
  },
  {
    "SMILES TEXT": "Cl.Nc1nc(=O)n([C@@H]2O[C@H](CO)[C@@H](O)[C@@H]2F)cc1I",
    "CLASS NAME": "not fulfilled"
  },
  {
    "SMILES TEXT": "Nc1ccn([C@@H]2O[C@H](CO)[C@@H](O)[C@@H]2O)c(=O)n1",
    "CLASS NAME": "fulfilled"
  },
  {
    "SMILES TEXT": "Cc1cn([C@@H]2O[C@H](CO)[C@@H](O)[C@@H]2F)c(=O)[nH]c1=O",
    "CLASS NAME": "not fulfilled"
  },
  {
    "SMILES TEXT": "O=c1[nH]c(=O)n([C@H]2C[C@H](O)[C@@H](CO)O2)cc1I",
    "CLASS NAME": "fulfilled"
  },
  {
    "SMILES TEXT": "O=c1[nH]c(=O)n([C@@H]2O[C@H](CO)[C@@H](O)[C@@H]2F)cc1I",
    "CLASS NAME": "fulfilled"
  },
  {
    "SMILES TEXT": "Nc1nc(=O)n([C@@H]2O[C@H](CO)[C@@H](O)[C@@H]2F)cc1F",
    "CLASS NAME": "fulfilled"
  },
  {
    "SMILES TEXT": "Nc1ccn([C@@H]2O[C@H](CO)[C@@H](O)[C@@H]2F)c(=O)n1",
    "CLASS NAME": "fulfilled"
  },
  {
    "SMILES TEXT": "O=c1[nH]c(=O)n([C@@H]2O[C@H](CO)[C@@H](O)[C@@H]2F)cc1Br",
    "CLASS NAME": "not fulfilled"
  },
  {
    "SMILES TEXT": "Nc1nc(=O)n([C@@H]2O[C@H](CO)[C@@H](O)[C@@H]2O)cc1I",
    "CLASS NAME": "fulfilled"
  },
  {
    "SMILES TEXT": "Nc1nc(=O)n([C@H]2C[C@H](O)[C@@H](CO)O2)cc1I",
    "CLASS NAME": "not fulfilled"
  },
  {
    "SMILES TEXT": "O=c1[nH]c(=O)n([C@@H]2O[C@H](CO)[C@@H](O)[C@@H]2F)cc1Cl",
    "CLASS NAME": "not fulfilled"
  }
]
